B1: TPR t1 (parent)
chain: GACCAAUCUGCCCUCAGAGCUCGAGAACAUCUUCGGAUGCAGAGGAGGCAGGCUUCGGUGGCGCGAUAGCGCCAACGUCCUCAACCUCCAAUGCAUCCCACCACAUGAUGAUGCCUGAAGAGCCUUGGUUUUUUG

Variants of: B1
Test: polymerase ribozyme fitness, log enrichment relative to wild type (log ratio); higher = more active; in vitro selection for triplet polymerase activity
Could you label it TRUE if measured polymerase ribozyme fitness (log ratio) is -4 or higher, and FALSE otherwise?

Previously resolved entries follow.
[
  {
    "sequenceChange": "U9A C114A",
    "classLabel": "TRUE"
  },
  {
    "sequenceChange": "A5C C15G U54G C89U U116G G117A C124G",
    "classLabel": "TRUE"
  },
  {
    "sequenceChange": "U59G U92G G110A U133C",
    "classLabel": "FALSE"
  }
]

Ask | Assess whether reported polymerase ribozyme fitness (log ratio) for G69U C115A G120A sits at -4 or higher.
Reply | TRUE

Ask | Assess whether reported polymerase ribozyme fitness (log ratio) for G47C A50C C72U C85G C88G C102U C123U sits at -4 or higher.
Reply | FALSE

Ask | Assess whether reported polymerase ribozyme fitness (log ratio) for G52U G58A C79G C85A G107U G113A sits at -4 or higher.
Reply | FALSE

Ask | Assess whether reported polymerase ribozyme fitness (log ratio) for A83C C89U A95C sits at -4 or higher.
Reply | TRUE

Ask | Assess whether reported polymerase ribozyme fitness (log ratio) for G58U C98U U125A sits at -4 or higher.
Reply | TRUE

Ask | Assess whether reported polymerase ribozyme fitness (log ratio) for G60A G117C A121U sits at -4 or higher.
Reply | TRUE

Ask | Assess whether reported polymerase ribozyme fitness (log ratio) for C8A G48A C89U C124U sits at -4 or higher.
Reply | TRUE

Ask | Assess whether reported polymerase ribozyme fitness (log ratio) for C40U G42C G63U C85U U130A sits at -4 or higher.
Reply | FALSE
